# TEST_DESCRIPTION: Absorption and bioavailability: plasma levels of hydrocortisone in rats
# Format: in vivo, male Sprague-Dawley rats
# CONDITION_DETAILS: rat, in vivo, sc, 1 mg/kg
MEASUREMENT_LABEL: bioavailability (%)
Field format: number, assumed %, no unit text.

Report bioavailability, nothing else, for this molecule: C[C@]12CCC(=O)C=C1CC[C@@H]1[C@@H]2[C@@H](O)C[C@@]2(C)[C@H]1CC[C@]2(O)C(=O)CO [Hydrocortisone, hydrocortisone, reference compound]
70.3

====

# TEST_DESCRIPTION: Absorption and bioavailability: plasma levels of hydrocortisone in rats
# Type: in vivo, male Sprague-Dawley rats
# CONDITION_DETAILS: rat, in vivo, sc, 1 mg/kg
MEASUREMENT_LABEL: k el
Value and unit, in that order.

Return k el (reported value) for this compound: C[C@]12CCC(=O)C=C1CC[C@@H]1[C@@H]2[C@@H](O)C[C@@]2(C)[C@H]1CC[C@]2(O)C(=O)CO [Hydrocortisone, hydrocortisone, reference compound]
4.17e-05 s⁻¹

====

# TEST_DESCRIPTION: Absorption and bioavailability: plasma levels of hydrocortisone in rats
# Type: in vivo, male Sprague-Dawley rats
# CONDITION_DETAILS: rat, in vivo, sc, 1 mg/kg
MEASUREMENT_LABEL: Tmax (min)
I only need the number, in min, no unit after it.

Determine its reported Tmax: C[C@]12CCC(=O)C=C1CC[C@@H]1[C@@H]2[C@@H](O)C[C@@]2(C)[C@H]1CC[C@]2(O)C(=O)CO [Hydrocortisone, hydrocortisone, reference compound]
30

====

# TEST_DESCRIPTION: Absorption and bioavailability: plasma levels of hydrocortisone in rats
# Assay type: in vivo, male Sprague-Dawley rats
# CONDITION_DETAILS: rat, in vivo, sc, 1 mg/kg
MEASUREMENT_LABEL: AUC at 8 h
Please append the unit to your numeric answer.

For the compound C[C@]12CCC(=O)C=C1CC[C@@H]1[C@@H]2[C@@H](O)C[C@@]2(C)[C@H]1CC[C@]2(O)C(=O)CO [Hydrocortisone, hydrocortisone, reference compound] , give its reported AUC at 8 h.
192 ng·h/mL

====

# TEST_DESCRIPTION: Absorption and bioavailability: plasma levels of hydrocortisone in rats
# Format: in vivo, male Sprague-Dawley rats
# CONDITION_DETAILS: rat, in vivo, sc, 1 mg/kg
# Source text: Male Sprague-Dawley rats, with a body weight of 250-350 gr were used, obtained from Charles River-Calco (Como), fed ad libitum with water and compound feed in pellets, with the code name of 4RF 21, produced by "Italiana Mangimi", licensee of Charles River. […]
MEASUREMENT_LABEL: half-life
Please state the value followed by its unit.

For the molecule C[C@]12CCC(=O)C=C1CC[C@@H]1[C@@H]2[C@@H](O)C[C@@]2(C)[C@H]1CC[C@]2(O)C(=O)CO [Hydrocortisone, hydrocortisone, reference compound] , give its reported half-life.
4.5 h
